Data provenance: patent US8415312B2

Tested on: erythrocytes
Assay: In vitro toxicity study, haemolysis (Tables 11 and 12)
Assay type: cell-based, horse
Conditions: 5 μg/mL (Table 11)

compound: CC1C=CC=CC=CC=CC=CC=CC=CC(OC2OC(C)C(O)C(N)C2O)CC2OC(O)(CC(O)C(O)CCC(O)CC(O)CC(O)CC(=O)OC(C)C(C)C1O)CC(O)C2C(=O)NCCCO (stereo not shown) [Compound 12]
experimental_system: erythrocytes
Haemolysis of erythrocytes, Mean ± SE / %: 4.4

====

System: erythrocytes
Assay: In vitro toxicity study, haemolysis (Tables 11 and 12)
Assay type: cell-based, horse
Conditions: 5 μg/mL (Table 11)
readout_type: Haemolysis of erythrocytes, Mean ± SE (%)

molecule: CC1C=CC=CC=CC=CC=CC=CC=CC(OC2OC(C)C(O)C(N)C2O)CC2OC(O)(CC(O)C(O)CCC(O)CC(O)CC(O)CC(=O)OC(C)C(C)C1O)CC(O)C2C(=O)NCCCN(C)C (stereo not shown) [Compound 11, S44HP DMAP Amide]
experimental_system: erythrocytes
readout_type: Haemolysis of erythrocytes, Mean ± SE
measured: 3.2
--
molecule: CC1C=CC=CC=CC=CC=CC=CC=CC(OC2OC(C)C(O)C(N)C2O)CC2OC(O)(CC(O)C(O)CCC(O)CC(O)CC(O)CC(=O)OC(C)C(C)C1O)CC(O)C2C(N)=O (stereo not shown)
experimental_system: erythrocytes
readout_type: Haemolysis of erythrocytes, Mean ± SE
measured: 5.2
--
molecule: CC1C=CC=CC=CC=CC=CC=CC=CC(OC2OC(C)C(O)C(N)C2O)CC2OC(O)(CC(O)C(O)CCC(O)CC(O)CC(O)CC(=O)OC(C)C(C)C1O)CC(O)C2C(=O)N1CCN(CCO)CC1 (stereo not shown)
experimental_system: erythrocytes
readout_type: Haemolysis of erythrocytes, Mean ± SE
measured: 2.6
--
molecule: C[C@@H]1[C@H](O)[C@@H](C)/C=C/C=C/C=C/C=C/C=C/C=C/C=C/[C@H](O[C@@H]2O[C@H](C)[C@@H](O)[C@H](N)[C@@H]2O)C[C@@H]2O[C@](O)(C[C@@H](O)C[C@@H](O)[C@H](O)CC[C@@H](O)C[C@@H](O)CC(=O)O[C@H]1C)C[C@H](O)[C@H]2C(=O)O [Amphotericin B, reference compound]
experimental_system: erythrocytes
readout_type: Haemolysis of erythrocytes, Mean ± SE
measured: 39.7

====

Test system: mice (C57B1/6xDBA/2)F1 B6D2F1
Conditions: single injection into tail vein, probit analysis
Procedure: Male mice of hybrids of first generation (C57B1/6xDBA/2)F1 B6D2F1, weight 20-22 g., received from the Central farm. “Kryukovo” of Russian Academies of Medical Science (RAMS) were used. Animals were maintained in a vivarium in plastic cages (with hardwood bedding in environmentally controlled conditions: 24±1° C., 12/12 hours light/dark cycle) on a standard diet of bricketed forages with easy access to drinking water (ad libitum). […]
// values below are reported MTD

compound: CC1C=CC=CC=CC=CC=CC=CC=CC(OC2OC(C)C(O)C(N)C2O)CC2OC(O)(CC(O)C(O)CCC(O)CC(O)CC(O)CC(=O)OC(C)C(C)C1O)CC(O)C2C.NC(CCC(=O)O)C(=O)O [Compound 29, Compound 1 L-glutamate]
MTD / mg/kg: 11.0
//
compound: CC1C=CC=CC=CC=CC=CC=CC=CC(OC2OC(C)C(O)C(N)C2O)CC2OC(O)(CC(O)C(O)CCC(O)CC(O)CC(O)CC(=O)OC(C)C(C)C1O)CC(O)C2C(=O)NCCN(C)C.NC(CCC(=O)O)C(=O)O (centres unmarked)
MTD / mg/kg: 14.7
//
compound: CC1C=CC=CC=CC=CC=CC=CC=CC(OC2OC(C)C(O)C(N)C2O)CC2OC(O)(CC(O)C(O)CCC(O)CC(O)CC(O)CC(=O)OC(C)C(C)C1O)CC(O)C2C (centres unmarked)
MTD / mg/kg: 7.8
//
compound: C[C@@H]1[C@H](O)[C@@H](C)/C=C/C=C/C=C/C=C/C=C/C=C/C=C/[C@H](O[C@@H]2O[C@H](C)[C@@H](O)[C@H](N)[C@@H]2O)C[C@@H]2O[C@](O)(C[C@@H](O)C[C@@H](O)[C@H](O)CC[C@@H](O)C[C@@H](O)CC(=O)O[C@H]1C)C[C@H](O)[C@H]2C(=O)O [Amphotericin B, reference compound]
MTD / mg/kg: 2.01
//
compound: CC1O[C@@H](O[C@H]2/C=C/C=C/C=C/C=C/C=C/C=C/C=C/[C@H](C)[C@@H](O)[C@@H](C)[C@H](C)OC(=O)C[C@H](O)C[C@H](O)C[C@H](O)CC[C@@H](O)[C@H](O)C[C@]3(O)C[C@H](O)[C@@H](C(=O)NCCN(C)C)[C@H](C2)O3)[C@H](O)C(N)[C@@H]1O (some centres unmarked)
MTD / mg/kg: 25.9
//
compound: CC1O[C@@H](O[C@H]2/C=C/C=C/C=C/C=C/C=C/C=C/C=C/[C@H](C)[C@@H](O)[C@@H](C)[C@H](C)OC(=O)C[C@H](O)C[C@H](O)C[C@H](O)CC[C@@H](O)[C@H](O)C[C@]3(O)C[C@H](O)[C@@H](C)[C@H](C2)O3)[C@H](O)C(NC(=O)[C@@H](N)CCCCN)[C@@H]1O (some centres unmarked)
MTD / mg/kg: 4.48
//
compound: CC1O[C@@H](O[C@H]2/C=C/C=C/C=C/C=C/C=C/C=C/C=C/[C@H](C)[C@@H](O)[C@@H](C)[C@H](C)OC(=O)C[C@H](O)C[C@H](O)C[C@H](O)CC[C@@H](O)[C@H](O)C[C@]3(O)C[C@H](O)[C@@H](C(=O)NCCN(C)C)[C@H](C2)O3)[C@H](O)C(NCC2(O)OC[C@@H](O)[C@@H](O)[C@@H]2O)[C@@H]1O.Cl (some centres unmarked)
MTD / mg/kg: 21.2
//
compound: CC1C=CC=CC=CC=CC=CC=CC=CC(OC2OC(C)C(O)C(N)C2O)CC2OC(O)(CC(O)CC(O)CC(O)CC(O)CC(O)CC(=O)OC(C)C(C)C1O)CC(O)C2C.NC(CCC(=O)O)C(=O)O (centres unmarked)
MTD / mg/kg: 43.1
